The binders listed here are annotated with their kon.
- test system: T1, human recombinant soluble CD73 protein (human, UniProt P21589 27-547)
- T1 construct: also called huCD73; rhCD73
- T1 sequence: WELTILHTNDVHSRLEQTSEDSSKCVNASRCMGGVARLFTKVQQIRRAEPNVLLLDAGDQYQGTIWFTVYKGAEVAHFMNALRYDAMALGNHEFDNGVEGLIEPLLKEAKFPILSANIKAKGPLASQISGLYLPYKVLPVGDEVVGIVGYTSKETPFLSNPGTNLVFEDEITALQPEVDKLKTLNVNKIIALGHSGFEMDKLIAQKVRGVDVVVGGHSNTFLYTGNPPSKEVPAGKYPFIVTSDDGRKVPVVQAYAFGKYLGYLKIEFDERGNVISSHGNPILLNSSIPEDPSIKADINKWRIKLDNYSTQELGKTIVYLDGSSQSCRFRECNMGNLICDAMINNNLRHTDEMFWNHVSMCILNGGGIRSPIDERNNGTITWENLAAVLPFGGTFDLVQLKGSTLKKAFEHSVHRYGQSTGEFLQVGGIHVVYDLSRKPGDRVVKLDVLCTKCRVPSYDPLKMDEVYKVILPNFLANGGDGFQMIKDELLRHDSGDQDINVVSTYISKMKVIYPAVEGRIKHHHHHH
- test method notes: SPR, Ab captured on Protein A, soluble huCD73 as analyte
Give the value, in units of M⁻¹ s⁻¹, as a plain number.

Sample records with kon:
binder	kon (M⁻¹ s⁻¹)
H1L3 (antibody, human IgG1, V domains shown) VH: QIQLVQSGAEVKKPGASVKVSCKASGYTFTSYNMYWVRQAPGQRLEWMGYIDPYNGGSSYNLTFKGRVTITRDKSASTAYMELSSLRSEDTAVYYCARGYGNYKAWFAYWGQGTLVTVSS VL: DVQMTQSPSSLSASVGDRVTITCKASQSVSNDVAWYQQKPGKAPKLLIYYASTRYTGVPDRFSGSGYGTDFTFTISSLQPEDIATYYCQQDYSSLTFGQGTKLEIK	92600
H0L2 (antibody, human IgG1, V domains shown, H0 VH limits counted by alignment with H1) VH: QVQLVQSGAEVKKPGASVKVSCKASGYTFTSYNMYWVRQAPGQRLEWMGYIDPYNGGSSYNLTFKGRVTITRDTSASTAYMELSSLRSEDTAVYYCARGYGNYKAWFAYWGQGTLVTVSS VL: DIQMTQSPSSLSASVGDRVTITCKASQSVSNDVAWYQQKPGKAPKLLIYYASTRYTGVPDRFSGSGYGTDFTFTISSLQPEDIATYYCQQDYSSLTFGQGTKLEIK	168000

# evaluate next
Data request, read-out kon, for H0L4 (antibody, human IgG1, V domains shown, H0 VH limits counted by alignment with H1) VH: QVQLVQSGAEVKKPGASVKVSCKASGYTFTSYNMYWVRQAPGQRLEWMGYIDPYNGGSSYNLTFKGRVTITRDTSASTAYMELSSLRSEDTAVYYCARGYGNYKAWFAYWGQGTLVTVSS VL: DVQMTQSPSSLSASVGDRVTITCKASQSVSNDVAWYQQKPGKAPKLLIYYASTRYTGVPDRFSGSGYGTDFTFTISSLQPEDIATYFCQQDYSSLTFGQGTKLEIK
137000

These measurements were taken from patent US20220041744A1.
